experiment: Human HepG2 cell viability assay in 384 well format; format: toxicity, cell-based; set-up: dose 125 nL, time 70.5 hour; concentration not given beside the values; conditions: HepG2 cells, read-out: Inhibition
Reported values of cytotoxicity at 70.5 h for individual entries
Hi! Could you send only the number? It should be in %, unit omitted.

Example compounds with recorded cytotoxicity at 70.5 h:
1. CC(O)C(=O)N1CCN(c2ccccc2Cl)C(=O)C1 (centres undefined): 17
2. CC(=O)N(CCc1ccccc1)CC(=O)NC1(C#N)CC1: -0.397
3. CC(C)(C)c1ccc(C(=O)C2CCCN(C(=O)CNS(C)(=O)=O)C2)cc1 (centres undefined): 23.1
4. NCc1n[nH]c(=O)n1-c1cccc(Cl)c1Cl: -3.71
5. Cc1cc2nc(-c3ccccc3)cc(NCC3CCS(=O)(=O)C3)n2n1 (centres undefined): 8.05

Given the entry `CCN(CCn1cccn1)Cc1nc(-c2cccs2)oc1C` , report its measured cytotoxicity at 70.5 h.
-9.82

Given the entry CCn1ncc2c1C(COC)CN(S(=O)(=O)C1CC1)C2 (centres undefined) , report its measured cytotoxicity at 70.5 h.
-8.31

Given the entry `COc1cccc(OCCNS(C)(=O)=O)c1` , report its measured cytotoxicity at 70.5 h.
1.43

Given the entry COCC(=O)N1CCCC1c1ccc(C(=O)NCc2ccccc2Cl)s1 (centres undefined) , report its measured cytotoxicity at 70.5 h.
-11.5

Given the entry CC(Cc1ccco1)NC(=O)Nc1cccnc1 (centres undefined) , report its measured cytotoxicity at 70.5 h.
2.87

Given the entry `CC(C)c1nn(C)c(N(C)C)c1CNCCC(=O)NC1CCCCC1` , report its measured cytotoxicity at 70.5 h.
37.6

Given the entry `CCCOc1ccc(CNc2cncc(-n3cccn3)n2)cc1` , report its measured cytotoxicity at 70.5 h.
-6.6

Given the entry `CCOCCCNCc1cc2c(C)cc(C)cc2n2c(=O)n(C)nc12` , report its measured cytotoxicity at 70.5 h.
-0.158

Given the entry CNC(=O)c1ccc(C(=O)N2CCCC(n3ccnc3C)C2)cn1 (centres undefined) , report its measured cytotoxicity at 70.5 h.
-3.51

Given the entry `CN(C)C(=O)c1n[nH]c2c1CN(CC1CCC1)C2` , report its measured cytotoxicity at 70.5 h.
-1.39

Given the entry `Cc1nn(C)c2c(=O)n(CC(=O)NCCC(C)C)ccc12` , report its measured cytotoxicity at 70.5 h.
-5.71

* * *

assay: Human HepG2 cell viability assay in 384 well format; format: toxicity, cell-based; parameters: dose 125 nL, time 70.5 hour; concentration not given beside the values; details: HepG2 cells, read-out: Inhibition
property-measured: cytotoxicity at 70.5 h (%)
Hi! Could you send only the number? It should be in %, unit omitted.

1) CCc1nc(C)ncc1C(=O)N1CC(C)CN(C)c2ccccc21 (stereo unspecified): -7.55
2) Cc1ncsc1C(=O)N(Cc1ccccn1)C1CC1: 10
3) CC(C)n1cc(C(=O)NCCN(C)C)c2n[nH]c(=O)c-2c1: 1.2

Given the entry COCC(C)NC(=O)c1cn(C(C)C)cc2c(=O)[nH]nc1-2 (stereo unspecified) , report its measured cytotoxicity at 70.5 h.
-6.59

Given the entry `Cc1cc(Cl)ccc1-n1ncc(C(=O)N(C)CCc2ccccn2)c1N` , report its measured cytotoxicity at 70.5 h.
49.3

Given the entry Cc1nc(Nc2nnc(C)s2)cc(C2CCCN2S(C)(=O)=O)n1 (stereo unspecified) , report its measured cytotoxicity at 70.5 h.
-1.79

Given the entry CCc1ccc(C2COCCN2C(=O)NCc2cccc(C#N)c2)o1 (stereo unspecified) , report its measured cytotoxicity at 70.5 h.
-9.17

Given the entry CC(C)c1cc(C2CCCN2C(=O)CN2C(=O)CCNC2=O)no1 (stereo unspecified) , report its measured cytotoxicity at 70.5 h.
-5.21

Given the entry `COCCCN1CC2(CCN(Cc3ncc[nH]3)CC2)CC1=O` , report its measured cytotoxicity at 70.5 h.
-4.09

Given the entry `CN1C[C@]2(CC[C@@H](C(=O)N3CCOCC3)CC2)Oc2ccccc2C1=O` , report its measured cytotoxicity at 70.5 h.
-5.13

Given the entry O=C(NCC(O)COc1ccccc1)Nc1nncs1 (stereo unspecified) , report its measured cytotoxicity at 70.5 h.
21.4

* * *

assay: Human HepG2 cell viability assay in 384 well format; type: toxicity, cell-based; set-up: dose 125 nL, time 70.5 hour; concentration not given beside the values; details: HepG2 cells, read-out: Inhibition
property-measured: cytotoxicity at 70.5 h (%)
Hi! Could you send only the number? It should be in %, unit omitted.

1) CC(C)C(C(=O)NC1CC1)n1cnc2cc(F)c(F)cc21 (configuration not stated): -0.654
2) O=C(NCC1CCCN(C(=O)NCCc2ccccc2)C1)c1ccco1 (configuration not stated): -0.863

Given the entry Cc1nc(CN(C)C2CCCN(c3ccccc3)C2)no1 (configuration not stated) , report its measured cytotoxicity at 70.5 h.
-3.56

Given the entry `Cc1nnsc1C(=O)NCCn1ccc(-c2ccncc2)n1` , report its measured cytotoxicity at 70.5 h.
18.8

Given the entry `Cn1cc(CN2CCN3C[C@H](Oc4cccnc4)C[C@H]3C2)cn1` , report its measured cytotoxicity at 70.5 h.
-1.85

Given the entry `CC[C@@]1(O)CCN(C(=O)CN(C)Cc2ccc(F)cc2)C[C@H]1O` , report its measured cytotoxicity at 70.5 h.
17.3

Given the entry `Cc1nn(C)cc1CN(C)C(=O)c1ccncc1` , report its measured cytotoxicity at 70.5 h.
2.69

Given the entry Cc1ccc(C)c(OC(C)C(=O)Nc2cccnc2)c1 (configuration not stated) , report its measured cytotoxicity at 70.5 h.
-3.32

Given the entry `CCS(=O)(=O)Nc1ccn(Cc2ccc(F)cc2Cl)n1` , report its measured cytotoxicity at 70.5 h.
-8.72

Given the entry O=C(C1CCCc2[nH]ncc21)N1CCCC2(C1)OCCO2 (configuration not stated) , report its measured cytotoxicity at 70.5 h.
-9.5

Given the entry NC(=O)COc1cccc(C(=O)N2CCCC(n3ccnc3)C2)c1 (configuration not stated) , report its measured cytotoxicity at 70.5 h.
-14.8

Given the entry Cc1nc(C)n(C2CCCN(C(=O)Cc3ccc4c(c3)CCC4)C2)n1 (configuration not stated) , report its measured cytotoxicity at 70.5 h.
-3.72

* * *

Reported values of cytotoxicity at 70.5 h for individual entries
test: Human HepG2 cell viability assay in 384 well format; assay type: toxicity, cell-based; parameters: dose 125 nL, time 70.5 hour; concentration not given beside the values; settings: HepG2 cells, read-out: Inhibition
Hi! Could you send only the number? It should be in %, unit omitted.

1. CS(=O)(=O)N[C@@H]1CCN(Cc2nccs2)[C@H]1Cc1ccncc1: -13.1

Given the entry `O=C(O)c1ccc2ccc(N3CCN(CC4CC4)CC3)n2c1` , report its measured cytotoxicity at 70.5 h.
-9.01

Given the entry `Nc1nnnn1NCc1ccccc1C(F)(F)F` , report its measured cytotoxicity at 70.5 h.
-8.4

Given the entry Cn1cnnc1C1CCCN(C(=O)c2cc3ccccc3[nH]2)C1 (centres undefined) , report its measured cytotoxicity at 70.5 h.
-11.2

Given the entry `Cc1nccn1[C@@H]1CC[C@@H](NC(=O)CCCn2cncn2)[C@H]1O` , report its measured cytotoxicity at 70.5 h.
16.1

Given the entry `CCn1cnnc1CNC(=O)N1CCN(Cc2ccco2)CC1` , report its measured cytotoxicity at 70.5 h.
1.5

* * *

assay: Human HepG2 cell viability assay in 384 well format; assay type: toxicity, cell-based; set-up: dose 125 nL, time 70.5 hour; concentration not given beside the values; details: HepG2 cells, read-out: Inhibition
property-measured: cytotoxicity at 70.5 h (%)
Hi! Could you send only the number? It should be in %, unit omitted.

1. COc1ccc(CNC(Cn2cncn2)c2ccccc2)cc1C (stereo unspecified): -4.57
2. CCOC(=O)N1CCN(c2nc(N3CCCC3)c3ccccc3n2)CC1: -6.36
3. CC(C)[C@@H]1CN(Cc2cnc(C3CCCCC3)nc2)C[C@H]1N(C)C: 8.03
4. O=C(c1cn(Cc2ccccc2)c2ncccc12)N1CCOCC1: 2.42
5. Cc1ccc(CN2Cc3nnn(C)c3C(COCc3ccccc3)C2)o1 (stereo unspecified): -8.1

Continue with the molecule presented below.
Given the entry `CCN(CC)C(=O)c1nnc2ccc(N3CCOCC3)cc2n1` , report its measured cytotoxicity at 70.5 h.
26.5

* * *

assay: Human HepG2 cell viability assay in 384 well format; format: toxicity, cell-based; set-up: dose 125 nL, time 70.5 hour; concentration not given beside the values; details: HepG2 cells, read-out: Inhibition
property-measured: cytotoxicity at 70.5 h (%)
Hi! Could you send only the number? It should be in %, unit omitted.

Example molecules with recorded cytotoxicity at 70.5 h:
1. c1ccc(Cn2cncn2)c(CNCC2CNc3ccnn3C2)c1 (stereo unspecified): -13.5
2. Cc1ccc(-c2nc(CSCCC(=O)NC(N)=O)co2)cc1: -11.4
3. Cc1csc(CCCNC(=O)NC2CC(=O)N(C(C)(C)C)C2)n1 (stereo unspecified): -2.05
4. c1ccc(-c2nc3c(c(NCCCn4cncn4)n2)CCNCC3)nc1: -13.5
5. CC(=O)N(c1ccc(F)cc1)c1nc(CN2CCCC2C(C)C)cs1 (stereo unspecified): 24.7

Continue with the molecule presented below.
Given the entry `CCS(=O)(=O)N1CC(c2nc(-c3ccncc3)no2)C1` , report its measured cytotoxicity at 70.5 h.
-2.55
